The following compounds are shown together with reported MIC P. aeruginosa ATCC 27883 values.
- Tested on: Pseudomonas aeruginosa (ATCC 27883)
- measurementConditions: ATCC 27883
Non-standard residues stand in square brackets, D forms with d. Residues, ends and D or L forms follow the SMILES beside them. Bip = N[C@@H](Cc1ccc(-c2ccccc2)cc1)C(=O)O; 2Nal = N[C@@H](Cc1ccc2ccccc2c1)C(=O)O; d2Nal = N[C@H](Cc1ccc2ccccc2c1)C(=O)O
measuredQuantity: MIC P. aeruginosa ATCC 27883 (µg/mL)

compound	valueUnit	comparisonSymbol	valueMeasured
N=C(N)NCCC[C@@H]1NC(=O)CNC(=O)[C@H](Cc2c[nH]c3ccccc23)NC(=O)[C@H](Cc2c[nH]c3ccccc23)NC(=O)[C@H](Cc2c[nH]c3ccccc23)NC(=O)[C@H](Cc2c[nH]c3ccccc23)NC(=O)CNC(=O)[C@H](CCCNC(=N)N)NC(=O)[C@H](CCCNC(=N)N)NC(=O)[C@H](CCCNC(=N)N)NC1=O [IFX-043] (cyclo(GRRRRGWWWW))	µg/mL	=	50
NCCCC[C@@H]1NC(=O)[C@H](CCCCN)NC(=O)[C@H](CCCCN)NC(=O)[C@@H](Cc2ccc3ccccc3c2)NC(=O)[C@@H](Cc2ccc3ccccc3c2)NC(=O)[C@H](Cc2c[nH]c3ccccc23)NC(=O)[C@H](CCCCN)NC1=O [IFX-127, c[Lys-Lys-Lys-Lys-Trp-naI-naI]] (cyclo(KKKKW[d2Nal][d2Nal]))	µg/mL	=	128
N=C(N)NCCC[C@@H]1NC(=O)[C@H](CCCNC(=N)N)NC(=O)[C@H](Cc2ccc3ccccc3c2)NC(=O)[C@H](Cc2ccc3ccccc3c2)NC(=O)[C@H](CCCNC(=N)N)NC(=O)[C@H](CCCNC(=N)N)NC(=O)[C@H](Cc2ccc3ccccc3c2)NC1=O [IFX-018, c[Arg-NaI-Arg-Arg-NaI-NaI-Arg]] (cyclo(R[2Nal]RR[2Nal][2Nal]R))	µg/mL	>	100
N=C(N)NCCC[C@@H]1NC(=O)[C@H](CCCNC(=N)N)NC(=O)[C@H](CCCNC(=N)N)NC(=O)[C@H](CCCNC(=N)N)NC(=O)[C@@H](Cc2ccc3ccccc3c2)NC(=O)[C@H](Cc2ccc3ccccc3c2)NC(=O)[C@H](Cc2c[nH]c3ccccc23)NC1=O [IFX-102, c[Arg-Arg-Arg-Arg-Trp-NaI-naI]] (cyclo([2Nal][d2Nal]RRRRW))	µg/mL	=	25
N=C(N)NCCC[C@H](NC(=O)[C@H](CCCNC(=N)N)NC(=O)[C@H](CCCNC(=N)N)NC(=O)[C@@H](N)CCCNC(=N)N)C(=O)N[C@@H](Cc1ccc(-c2ccccc2)cc1)C(=O)N[C@@H](Cc1ccc(-c2ccccc2)cc1)C(=O)N[C@@H](Cc1ccc(-c2ccccc2)cc1)C(=O)O [IFX-007-1, NH2-Arg-Arg-Arg-Arg-Bip-Bip-Bip-OH] (H-RRRR[Bip][Bip][Bip]-OH)	µg/mL	=	25
N=C(N)NCCC[C@H](NC(=O)[C@H](CCCNC(=N)N)NC(=O)[C@H](CCCNC(=N)N)NC(=O)[C@@H](N)CCCNC(=N)N)C(=O)N[C@@H](Cc1ccc2ccccc2c1)C(=O)N[C@@H](Cc1ccc2ccccc2c1)C(=O)N[C@@H](Cc1c[nH]c2ccccc12)C(=O)O [IFX-031-1, NH2-R-R-R-R-NaI-NaI-Trp-OH] (H-RRRR[2Nal][2Nal]W-OH)	µg/mL	=	25
